- measured.target: S1-Fc (SARS-CoV-2, UniProt P0DTC2 16-685)
- test: phage ELISA
metric: specificity ELISA, fold over background (fold over background)
The reply should contain only the number, in fold over background.

A selection of reference data follows.
binder	specificity ELISA, fold over background, fold over background
SARS-CoV-2 variant 1-28 (antibody, V domains shown) VH: EVQLLESGGGLVQPGGSLRLSCAASGFTFSSYGMSWVRQAPGKGLEWVSAISGSGGGTYYADSVKGRFTISRDNSKNTLYLQMNSLRAEDTAVYYCASSSSWQFDYWGQGTLVTVSS VL: QSALTQPASVSGSPGQSITISCTGTSSGVGSYNLVSWYQQHPGKAPKLMIYEGSQRPSGVSNRFSGSKSGNTASLTISGLQAEDEADYYCCSYAGSSTHYVFGGGTKLTVL	1.1
SARS-CoV-2 variant 1-29 (antibody, V domains shown) VH: EVQLLESGGGLVQPGGSLRLSCAASGFTFSSYAMYWVRQAPGKGLEWVSAISGSAGSTYYADSVKGRFTISRDNSKNTLYLQMNSLRAEDTAVYYCARDTNDFWSGYSIFDPWGQGTLVTVSS VL: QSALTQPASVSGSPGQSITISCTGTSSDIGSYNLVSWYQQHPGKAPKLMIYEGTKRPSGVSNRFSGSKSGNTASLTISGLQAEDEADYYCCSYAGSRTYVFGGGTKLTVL	1
SARS-CoV-2 variant 1-3 (antibody, V domains shown) VH: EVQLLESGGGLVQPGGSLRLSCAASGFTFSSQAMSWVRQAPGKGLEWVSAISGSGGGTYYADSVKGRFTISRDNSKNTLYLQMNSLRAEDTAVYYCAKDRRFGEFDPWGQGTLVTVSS VL: QSALTQPASVSGSPGQSITISCTGISSDVGSYNLVSWYQQHPGKAPKLMIYEGTKRPSGVSNRFSGSKSGNTASLTISGLQAEDEADYYCCSYAGSSSFVVFGGGTKLTVL	1.5

So for SARS-CoV-2 variant 1-4 (antibody, V domains shown) VH: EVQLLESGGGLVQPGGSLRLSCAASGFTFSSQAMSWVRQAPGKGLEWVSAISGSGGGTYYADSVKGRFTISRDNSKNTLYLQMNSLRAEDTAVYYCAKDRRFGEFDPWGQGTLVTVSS VL: QSALTQPASVSGSPGQSITISCTGTSSDVGTYNLVSWYQQHPGKAPKLMIYEGSQRPSGVSNRFSGSKSGNTASLTISGLQAEDEADYYCCSYAGSSSFVVFGGGTKLTVL , the logged specificity ELISA, fold over background turned out to be 0.9
